# test summary: in vivo
# condition context: C57BL/6N, mouse, plasma, po, 4 mg/kg, AUCt plasma, LPS mice; 4 mg/kg PO olanzapine; t = 24 hours; mean (95% CI)
metric name: AUC(0-t) (ng·h/mL)
Only the number, expressed in ng·h/mL, is required.

Give the measured AUC(0-t) of Cc1cc2c(s1)Nc1ccccc1N=C2N1CCNCC1 [DMO, 4’-N-desmethylolanzapine] .
1070

----------
# test summary: in vivo
# condition context: C57BL/6N, mouse, plasma, iv, 0.5 mg/kg, AUCt plasma, LPS mice; 0.5 mg/kg IV DMO; t = 6 hours; mean (95% CI)
metric name: AUC(0-t) (ng·h/mL)
Only the number, expressed in ng·h/mL, is required.

Give the measured AUC(0-t) of Cc1cc2c(s1)Nc1ccccc1N=C2N1CCNCC1 [DMO, 4’-N-desmethylolanzapine] .
1690

----------
# test summary: Brain penetration (brain homogenate AUCt, Kp,brain, Kp,uu,brain)
# condition context: C57BL/6N, mouse, brain, iv, 0.5 mg/kg, Kp,uu,brain, Controls; 0.5 mg/kg IV DMO
metric name: Kp uu
Please reply with the number alone, leaving off any unit.

Give the measured Kp uu of Cc1cc2c(s1)Nc1ccccc1N=C2N1CCNCC1 [DMO, 4’-N-desmethylolanzapine] .
0.051

----------
# test summary: Rapid equilibrium dialysis, binding in brain homogenates
# Assay type: in vitro ADME, mice
# condition context: C57BL/6N, mouse, pH 7.4, LPS mice; mean (range); pooled samples; read-out: unbound fraction in the brain homogenate
metric name: fraction unbound at 4 h
Please reply with the number alone, leaving off any unit.

Give the measured fraction unbound at 4 h of Cc1cc2c(s1)Nc1ccccc1N=C2N1CCNCC1 .
0.088

----------
# test summary: in vivo
# condition context: C57BL/6N, mouse, plasma, po, 4 mg/kg, AUCt plasma, Controls; 4 mg/kg PO olanzapine; t = 24 hours; mean (95% CI)
metric name: AUC(0-t) (ng·h/mL)
Only the number, expressed in ng·h/mL, is required.

Give the measured AUC(0-t) of Cc1cc2c(s1)Nc1ccccc1N=C2N1CCNCC1 .
408

----------
# test summary: Rapid equilibrium dialysis, protein binding in plasma
# Format: in vitro ADME
# condition context: C57BL/6N, mouse, plasma (pooled samples from the study mice), pH 7.4, LPS mice, mean (range)
metric name: fraction unbound at 4 h
Please reply with the number alone, leaving off any unit.

Give the measured fraction unbound at 4 h of Cc1cc2c(s1)Nc1ccccc1N=C2N1CCNCC1 .
0.083

----------
# test summary: in vivo
# condition context: C57BL/6N, mouse, plasma, iv, 0.5 mg/kg, AUCt plasma, Controls; 0.5 mg/kg IV DMO; t = 6 hours; mean (95% CI)
metric name: AUC(0-t) (ng·h/mL)
Only the number, expressed in ng·h/mL, is required.

Give the measured AUC(0-t) of Cc1cc2c(s1)Nc1ccccc1N=C2N1CCNCC1 .
562

----------
# test summary: Rapid equilibrium dialysis, protein binding in plasma
# Type: in vitro ADME
# condition context: C57BL/6N, mouse, plasma (pooled samples from the study mice), pH 7.4, control mice, mean (range)
metric name: fraction unbound at 4 h
Please reply with the number alone, leaving off any unit.

Give the measured fraction unbound at 4 h of Cc1cc2c(s1)Nc1ccccc1N=C2N1CCNCC1 [DMO, 4’-N-desmethylolanzapine] .
0.13
